procedureDetails: Tmax in male Beagle dog at 1 mg/kg,iv measured upto 24 hrs
Type: ADME, organism-based, Canis lupus familiaris
statedConditions: in vivo

{"structureSmilesString": "CC(=O)O[C@@]12CO[C@@H]1C[C@H](O)[C@@]1(C)C(=O)[C@H](O)C3=C(C)[C@@H](OC(=O)[C@H](OC(=O)CCC(=O)NCCCC[C@H](NC(=O)CC[C@@H](NC(=O)[C@H](C)NC(=O)/C=C/c4ccc(F)cc4Cl)C(N)=O)C(=O)O)[C@@H](NC(=O)OC(C)(C)C)c4ccccc4)C[C@@](O)([C@@H](OC(=O)c4ccccc4)[C@H]21)C3(C)C", "Tmax, min": 30}
